- SUBJECT_OF_TEST: T1, IL6-R on U266 cells (human, UniProt P08887 20-468)
- T1 sequence (looked up): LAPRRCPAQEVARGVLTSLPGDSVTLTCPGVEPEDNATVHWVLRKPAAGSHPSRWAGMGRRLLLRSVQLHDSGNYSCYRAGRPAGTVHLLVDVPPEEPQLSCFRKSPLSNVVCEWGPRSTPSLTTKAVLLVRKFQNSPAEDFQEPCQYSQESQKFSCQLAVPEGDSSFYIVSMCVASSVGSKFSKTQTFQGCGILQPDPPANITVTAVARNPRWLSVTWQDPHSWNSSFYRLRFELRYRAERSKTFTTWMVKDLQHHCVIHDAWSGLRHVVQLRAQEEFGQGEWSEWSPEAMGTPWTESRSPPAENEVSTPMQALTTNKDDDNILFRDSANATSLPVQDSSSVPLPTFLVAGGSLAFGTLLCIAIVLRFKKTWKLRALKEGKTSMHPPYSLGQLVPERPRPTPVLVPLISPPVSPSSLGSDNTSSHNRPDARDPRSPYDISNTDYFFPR
- MEASUREMENT_PROTOCOL: cell-based or functional assay
QUANTITY: IC50, XG-1 proliferation

These recorded examples may help you get a feel for the data.
Reference Fab (Fab, V domains shown, Anti-human IL-6R Fab according to EP 0 628 639, made in E. coli periplasm; also called Tocilizumab-Fab) VH: QVQLQESGPGLVRPSQTLSLTCTVSGYSITSDHAWSWVRQPPGRGLEWIGYISYSGITTYNPSLKSRVTMLRDTSKNQFSLRLSSVTAADTAVYYCARSLARTTAMDYWGQGSLVTVSS VL: DIQMTQSPSSLSASVGDRVTITCRASQDISSYLNWYQQKPGKAPKLLIYYTSRLHSGVPSRFSGSGSGTDFTFTISSLQPEDIATYYCQQGNTLPYTFGQGTKVEIKR = 5.99 nM
IL6R03 (VHH, also called PMP31A4; PMP 31 A4) VHH: EVQLVESGGGLVQAGGSLRLSCAASGSIFKVNAMGWYRQAPGKQRELVAGIISGGSTNYADSVKGRLTISRDNAKNTVYLQMNSLKPEDTAVYYCSFVTTNSDYDLGRDYWGQGTQVTVSS = 16.2 nM
IL6R12 (VHH, also called PMP35F4; PMP 35 F4) VHH: EVQLVESGGGLVQAGGSLRLSCAASGRTFSSYDMGWYRQAPGKEREFVAIITWNSSTYYADSVKGRFTISRDNAKNTVYLQMNSLKPEDTAIYYCNAQYGLGYAEDYWGQGTQVTVSS = 2.75 nM

Switching to the query record.
Reported IC50, XG-1 proliferation for IL6R14 (VHH, also called PMP40H5; PMP 40 H5) VHH: EVQLVESGGGLVQPGGSLRLSCAASGFSLDYYAIGWFRQAPGKEREGVSCMDSSSGTTSTYYSDSVKGRFTISRDDAKNTVYLQMNSLKPEDTAVYYCAADGHLNWGQRYVPCSQISWRGWNDYWGQGTQVTVSS was 0.603 nM
